Just for reference, patent US8614327B2 is where these values come from.

# target.entity: ΔF508-CFTR (Homo sapiens, UniProt P13569, DEL508-508)
# Construct: expressed in transfected cells
# Sequence (P13569 with tags, fused parts or gaps DEL508-508): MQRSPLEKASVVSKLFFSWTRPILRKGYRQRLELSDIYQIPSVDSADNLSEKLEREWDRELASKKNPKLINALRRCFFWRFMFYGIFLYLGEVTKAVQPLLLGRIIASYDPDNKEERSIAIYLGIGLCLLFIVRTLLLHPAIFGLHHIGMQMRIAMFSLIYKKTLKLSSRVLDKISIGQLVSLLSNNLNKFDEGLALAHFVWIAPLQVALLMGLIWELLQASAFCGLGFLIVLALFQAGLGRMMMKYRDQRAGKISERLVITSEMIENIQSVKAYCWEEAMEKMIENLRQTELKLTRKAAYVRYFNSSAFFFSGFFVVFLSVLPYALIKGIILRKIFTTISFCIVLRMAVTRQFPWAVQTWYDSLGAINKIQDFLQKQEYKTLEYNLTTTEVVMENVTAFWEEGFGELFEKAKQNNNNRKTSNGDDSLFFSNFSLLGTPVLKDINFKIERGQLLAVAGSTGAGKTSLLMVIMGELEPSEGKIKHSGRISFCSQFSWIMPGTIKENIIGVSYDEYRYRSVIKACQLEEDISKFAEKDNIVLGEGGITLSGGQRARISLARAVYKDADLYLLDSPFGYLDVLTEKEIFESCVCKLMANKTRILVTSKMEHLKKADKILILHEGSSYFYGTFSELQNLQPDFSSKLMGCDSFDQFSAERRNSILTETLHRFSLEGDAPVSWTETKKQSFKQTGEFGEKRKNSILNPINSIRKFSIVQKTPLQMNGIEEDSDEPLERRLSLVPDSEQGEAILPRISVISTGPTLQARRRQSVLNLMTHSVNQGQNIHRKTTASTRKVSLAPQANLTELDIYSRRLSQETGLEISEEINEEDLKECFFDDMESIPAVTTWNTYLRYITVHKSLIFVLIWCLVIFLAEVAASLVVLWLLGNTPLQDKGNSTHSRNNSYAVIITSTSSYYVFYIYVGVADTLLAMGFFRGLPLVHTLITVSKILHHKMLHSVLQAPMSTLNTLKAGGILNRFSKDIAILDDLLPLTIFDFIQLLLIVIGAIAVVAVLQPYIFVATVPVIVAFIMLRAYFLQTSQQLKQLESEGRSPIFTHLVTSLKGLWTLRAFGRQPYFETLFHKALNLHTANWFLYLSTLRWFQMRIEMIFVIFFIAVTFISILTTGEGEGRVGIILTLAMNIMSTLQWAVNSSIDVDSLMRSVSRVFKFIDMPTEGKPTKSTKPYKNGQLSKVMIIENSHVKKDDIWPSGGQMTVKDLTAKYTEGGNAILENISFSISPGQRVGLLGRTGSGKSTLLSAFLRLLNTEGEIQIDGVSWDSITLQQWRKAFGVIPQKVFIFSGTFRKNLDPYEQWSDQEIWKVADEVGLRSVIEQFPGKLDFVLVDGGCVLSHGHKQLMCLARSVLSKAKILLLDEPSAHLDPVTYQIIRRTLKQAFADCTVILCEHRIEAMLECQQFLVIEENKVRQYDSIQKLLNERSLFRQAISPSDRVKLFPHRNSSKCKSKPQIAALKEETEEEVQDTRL
# experiment.notes: Membrane potential optical (FRET/VIPR) assay, identification of potentiator compounds
# Assay type: cell-based
# condition.parameters: Table 3; relative efficacy; assay not given
readout.name: % Activity

INSERT INTO results (compound, readout_name, observed_result) VALUES
  ('CC(C)(C)c1cc(C(F)(F)F)c(NC(=O)c2c[nH]c3cccc(O)c3c2=O)cc1O [Compound 487]', '% Activity', '++ (between 25% to 100%)'),
  ('O=C(Nc1cc(C(F)(F)F)ccc1C(F)(F)F)c1c[nH]c2ccccc2c1=O [Compound 630]', '% Activity', '++ (between 25% to 100%)'),
  ('CCCc1ccc(N)cc1NC(=O)c1c[nH]c2ccccc2c1=O [Compound 41]', '% Activity', '++ (between 25% to 100%)');

* * *

# target.entity: ΔF508-CFTR (Homo sapiens, UniProt P13569, DEL508-508)
# Construct: expressed in transfected cells
# experiment.notes: Membrane potential optical (FRET/VIPR) assay, identification of potentiator compounds
# Format: cell-based
# condition.parameters: Table 3; relative efficacy; assay not given
readout.name: % Activity

INSERT INTO results (compound, observed_result) VALUES
  ('Cc1c[nH]c2cc(NC(=O)c3c[nH]c4ccccc4c3=O)ccc12', '++ (between 25% to 100%)'),
  ('CC(C)(C)c1cc2cc[nH]c2cc1NC(=O)c1c[nH]c2ccc(F)cc2c1=O', '+++ (>100%)'),
  ('CC1CCN(S(=O)(=O)c2ccc3[nH]cc(C(=O)Nc4cc5[nH]ccc5cc4C(C)(C)C)c(=O)c3c2)CC1', '++ (between 25% to 100%)'),
  ('CC(C)(C)OC(=O)N1CCC(C)(C)c2ccc(NC(=O)c3c[nH]c4ccccc4c3=O)cc21', '++ (between 25% to 100%)'),
  ('CCCOc1ccc(N)cc1NC(=O)c1c[nH]c2ccccc2c1=O', '++ (between 25% to 100%)'),
  ('Cc1ccc(C(N)=O)c(NC(=O)c2c[nH]c3ccccc3c2=O)c1', '+ (<25%)'),
  ('N#CCc1ccccc1NC(=O)c1c[nH]c2ccccc2c1=O', '++ (between 25% to 100%)'),
  ('Cc1cccc2[nH]cc(C(=O)Nc3ccc(N4CCC[C@H]4C)cc3C(F)(F)F)c(=O)c12', '++ (between 25% to 100%)');

COC(=O)C1CCCCN1c1ccc(NC(=O)c2c[nH]c3ccccc3c2=O)c(C(F)(F)F)c1 (stereo not shown) has a reported % Activity of +++ (>100%)

`CC(C)(C)c1ccc(NC(=O)c2c[nH]c3ccccc3c2=O)cc1CO` has a reported % Activity of +++ (>100%)

`COc1cccc(NC(=O)c2c[nH]c3ccccc3c2=O)c1` has a reported % Activity of ++ (between 25% to 100%)

`CCOC(=O)c1cc2cc[nH]c2cc1NC(=O)c1c[nH]c2ccccc2c1=O` has a reported % Activity of ++ (between 25% to 100%)

`COc1cccc(-c2ccccc2NC(=O)c2c[nH]c3ccccc3c2=O)c1` has a reported % Activity of +++ (>100%)

`CN(C(=O)c1c[nH]c2ccccc2c1=O)c1cc(O)c(C(C)(C)C)cc1C(C)(C)C` has a reported % Activity of ++ (between 25% to 100%)

`C[C@@H]1CCCN1c1ccc(NC(=O)c2c[nH]c3ccccc3c2=O)c(C(F)(F)F)c1` has a reported % Activity of ++ (between 25% to 100%)

`CCc1ccc(NC(=O)c2c[nH]c3ccccc3c2=O)cc1` has a reported % Activity of ++ (between 25% to 100%)

`CC(C)c1ccc(NC(=O)c2c[nH]c3ccc(F)cc3c2=O)cc1O` has a reported % Activity of ++ (between 25% to 100%)

`O=C(Nc1c(Cl)cccc1Cl)c1c[nH]c2ccccc2c1=O` has a reported % Activity of ++ (between 25% to 100%)

`O=C(Nc1ccc2c(c1)OC(F)(F)O2)c1c[nH]c2ccccc2c1=O` has a reported % Activity of ++ (between 25% to 100%)

`CN(c1ccc(F)cc1)S(=O)(=O)c1ccc2[nH]cc(C(=O)Nc3cc4[nH]ccc4cc3C(C)(C)C)c(=O)c2c1` has a reported % Activity of ++ (between 25% to 100%)

`COc1ccc(NC(=O)c2c[nH]c3ccccc3c2=O)cc1N` has a reported % Activity of ++ (between 25% to 100%)
